assay: Phase 4 open-label single-dose study: pharmacokinetics of solriamfetol in plasma of healthy postpartum women; format: in vivo, human; conditions: female, human, po, 150 mg, single oral 150 mg solriamfetol tablet, N = 6, read-out: Cmax, Geometric Mean
Counter-ions that a name gives are not always drawn.
parameter-measured: Cmax (ng/mL)
Write the answer as a number in ng/mL, unit excluded.

Need Cmax of NC(=O)OC[C@H](N)Cc1ccccc1 [Solriamfetol, hydrochloride] , thanks.
892

----------
assay: Phase 4 open-label single-dose study: pharmacokinetics of solriamfetol in plasma of healthy postpartum women; assay type: in vivo, human; settings: female, human, po, 150 mg, single oral 150 mg solriamfetol tablet, N = 6, read-out: Vz/F, Arithmetic Mean (CV %)
Where a name gives a salt, the structure may show the parent alone.
parameter-measured: Vd/F (L)
Write the answer as a number in L, unit excluded.

Need Vd/F of NC(=O)OC[C@H](N)Cc1ccccc1 [Solriamfetol, hydrochloride] , thanks.
169

Values from patent US12036194B1
